System: SETVI (Setaria viridis)
Assay: Post-emergence herbicidal action against SETVI
Type: in vivo
Conditions: 80 g/ha, visual assessment after about 3 weeks
Experimental: Seeds of monocotyledonous and dicotyledonous weed and crop plants are laid out in sandy loam soil in wood-fiber pots, covered with soil and cultivated in a greenhouse under good growth conditions. 2 to 3 weeks after sowing, the trial plants are treated at the one-leaf stage. […]
Measured Attribute: Post-emergence effect at 80 g/ha against SETVI in % (%)

CS(=O)(=O)c1c(OC(F)(F)F)ccc(C(=O)Nc2nnco2)c1Cl = 100
CSc1c(OC(F)(F)F)ccc(C(=O)Nc2nnco2)c1Cl = 90
C[S+]([O-])c1c(OC(F)(F)F)ccc(C(=O)Nc2nnco2)c1Cl (racemic) = 100
CS(=O)(=O)c1c(OC(F)F)ccc(C(=O)Nc2nnco2)c1Cl = 100
CSc1c(OC(F)F)ccc(C(=O)Nc2nnco2)c1Cl = 100
C[S+]([O-])c1c(OC(F)F)ccc(C(=O)Nc2nnco2)c1Cl (racemic) = 100
